tested on: Escherichia coli; details: Concentration 32 ug.mL-1; ASSAY_TEST Inhibition of Bacterial Growth; detection method Absorption (OD600); MEDIA CAMHB; plate type 384well; NBS; CORNING #3640; time 18 hr
Description: Antibacterial activity against Escherichia coli ATCC 25922 (CO-ADD:GN_001); MIC in CAMBH media using NBS plates, by OD(600)
Results with a measured potency or affinity are listed apart.
Experimental Readout: Inhibition (%)
# value in %; strip the unit string

Ask: Give Escherichia coli Inhibition for the following molecule: CC1C(O)N(C(=O)OC(C)(C)C)N(S(=O)(=O)c2ccc([N+](=O)[O-])cc2)C1C (stereo unspecified)
Result: -1.81

Ask: Give Escherichia coli Inhibition for the following molecule: O=C(OCc1ccccc1)N1CC(Cc2ccccc2)C(O)O1 (stereo unspecified)
Result: -3.12

Further cases:
Ask: Give Escherichia coli Inhibition for the following molecule: CCCCCCCC1CN(S(=O)(=O)c2ccc(C)cc2)N(C(=O)OC(C)(C)C)C1=O (stereo unspecified)
Result: -11.74

Ask: Give Escherichia coli Inhibition for the following molecule: CCCCCCCC1CN(S(=O)(=O)c2ccc(C)cc2)N(S(=O)(=O)c2ccc(C)cc2)C1O (stereo unspecified)
Result: -1.55

Ask: Give Escherichia coli Inhibition for the following molecule: CC(C)(C)OC(=O)N1C(O)C2CCCC2N1S(=O)(=O)c1ccc([N+](=O)[O-])cc1 (stereo unspecified)
Result: -4.07

Ask: Give Escherichia coli Inhibition for the following molecule: CC1CN(S(=O)(=O)c2ccc([N+](=O)[O-])cc2)N(C(=O)OC(C)(C)C)C1O (stereo unspecified)
Result: -0.56

* * *

system: Staphylococcus aureus; settings: Concentration 32 ug.mL-1; ASSAY_TEST Inhibition of Bacterial Growth; detection method Absorption (OD600); MEDIA CAMHB; plate type 384well; NBS; CORNING #3640; time 18 hr
Description: Antibacterial activity against Staphylococcus aureus MRSA ATCC 43300 (CO-ADD:GP_020); MIC in CAMBH media, using NBS plates, by OD(600)
Potency and affinity values are given separately.
Experimental Readout: Inhibition (%)
# value in %; strip the unit string

Ask: Look up and report measured Inhibition for this entry: O=C(OCc1ccccc1)N1OC(O)C2CCCCC21 (stereo not given)
Result: 6.89

Ask: Look up and report measured Inhibition for this entry: CCCCCCCC1CN(S(=O)(=O)c2ccc(C)cc2)N(C(=O)OC(C)(C)C)C1=O (stereo not given)
Result: 0.71

Ask: Look up and report measured Inhibition for this entry: CCCCCCCC1CN(S(=O)(=O)c2ccc(C)cc2)N(S(=O)(=O)c2ccc(C)cc2)C1O (stereo not given)
Result: 7.71

Ask: Look up and report measured Inhibition for this entry: CC1C(O)N(C(=O)OC(C)(C)C)N(S(=O)(=O)c2ccc([N+](=O)[O-])cc2)C1C (stereo not given)
Result: 14.48

The record that follows has no Inhibition shown yet.
Ask: Look up and report measured Inhibition for this entry: O=C(OCc1ccccc1)N1CC(Cc2ccccc2)C(O)O1 (stereo not given)
Result: 13.58
